Target: PLIC-2 UBL domain UBLN2 1-107 (human, UniProt Q9UHD9 1-107)
Sequence (Q9UHD9 1-107): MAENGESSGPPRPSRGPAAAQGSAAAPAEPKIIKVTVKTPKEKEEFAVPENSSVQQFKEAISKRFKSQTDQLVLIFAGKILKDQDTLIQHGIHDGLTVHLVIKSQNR
Assay: NMR titration
Quantity kind: Kd
Give me the value, and tack the unit on after it.

query: Recorded Kd of PEVRFQQQLEQLNAMGFLNREANLQALIATGGDINAAIERLLGSQPS (domain or fragment, human, UniProt Q9UHD9 578-624, looked up) [PLIC-2 UBA domain UBLN2 578-624] , please.
result: 175 µM
